- testedSystem: pooled human IgG (human IgG1,2,3 and 4)
measuredProperty: Enzyme Activity Endpoint Assay: Fc (ng/µL)
Express it in ng/µL; write the number only.

# protein, readingUnit, testResult
rows = [
    ("PRT-491 (protein) MVTSVWTKGVTPPTDFIYGEDVLHAPYKAGQGWYDITKTFNGKDNLLCGAATAGNMLHWWFDQNKEQIENYLKKHPEKQKIIFNNQELFDLKAAIDTKDSQLDSKLFEYFKEKAFPYLSTKHLGVFPDHVIDMFINGYRLSLTNHGPTPVKRGSKDKRGGIFDAVFTRGVQSKLLTNRHDLKNKTLKEISDLIKQELTEGKALGISHTYANVRINHVINLWGADFDAEGNLEAIYVTDSDTNASIGMKKYFVGVNSNGKVAISAKEIEEDNIGAQVLGLFTLSTGQDIWNQTNLEHHHHHH", "ng/µL", 260),
]

Record request: Enzyme Activity Endpoint Assay: Fc value, item PRT-107 (protein) MRNATEAYAKEVPHQITSVWTKGVTPLTPEQFRYNNEDVIHAPYLANQGWYDITKAFDGKDNLLCGAATAGNMLHWWFDQNKTEIEAYLSKHPEKQKIIFNNQELFDLKAAIDTKDSQTNSQLFNYFRDKAFPNLSARQLGVMPDLVLDMFINGYYLNVFKTQSTDVNRPYQTKDKRGGIFDAVFTRGDQTTLLTARHDLKNKGLNDISTIIKQELTEGKALALSHTYANVSISHVINLWGADFNAEGNLEAIYVTDSDANASIGMKKYFVGVNAAGHVAISAKKIEGENIGAQVLGLFTLSSGKDIWQKLS 200
